# tested target: T1, Recombinant human EGFR-Fc (aa 1-645 of the extracellular domain of human EGFR fused to human Fc) (human, UniProt P00533 25-645)
# T1 construct: range 1-645; bought from R&D Systems; also called EGFR645-Fc; EGFR-Fc (HER-1); not shown: human Fc
# assay name: SPR Biacore, EGFR645-Fc; against I1-GS10-E5 Pegylated
measured endpoint: ΔKd (fold)
// note: answer is a bare numeric in fold

{"columns": ["binder", "measured endpoint", "unit annotation", "observed value"],
 "data": [
  ["I1-GS10-E5-GSGC pegylated (designed binder, PEG on the Cys of the GSGC tail of E5, alternative clone of I1-GS10-E5 pegylated; also called I1-GS10-E5-GSGC(4)) MGVSDVPRDLEVVAATPTSLLISWSARLKVARYYRITYGETGGNSPVQEFTVPKNVYTATISGLKPGVDYTITVYAVTRFRDYQPISINYRTEIEKGSGSGSGSGSGSGSGSGSGSVSDVPRDLEVVAATPTSLLISWWAPVDRYQYYRITYGETGGNSPVQEFTVPRDVYTATISGLKPGVDYTITVYAVTDYKPHADGPHTYHESPISINYRTEGSGCHHHHHH", "ΔKd (fold)", "fold", 2],
  ["I1(S62C)-GS10-E5 pegylated (designed binder, PEG on Cys at position 62 of I1 (position of SEQ ID NO: 1), also called I1(S62C)-GS10-E5(5)) MGVSDVPRDLEVVAATPTSLLISWSARLKVARYYRITYGETGGNSPVQEFTVPKNVYTATICGLKPGVDYTITVYAVTRFRDYQPISINYRTEIEKGSGSGSGSGSGSGSGSGSGSVSDVPRDLEVVAATPTSLLISWWAPVDRYQYYRITYGETGGNSPVQEFTVPRDVYTATISGLKPGVDYTITVYAVTDYKPHADGPHTYHESPISINYRTEHHHHHH", "ΔKd (fold)", "fold", 0.3]
]}

--- query ---
[ask] Which ΔKd (fold) is reported for this binder? I1(S91C)-GS10-E5 pegylated (designed binder, PEG on Cys at position 91 of I1 (position of SEQ ID NO: 1), also called I1(S91C)-GS10-E5(7)) MGVSDVPRDLEVVAATPTSLLISWSARLKVARYYRITYGETGGNSPVQEFTVPKNVYTATISGLKPGVDYTITVYAVTRFRDYQPICINYRTEIEKGSGSGSGSGSGSGSGSGSGSVSDVPRDLEVVAATPTSLLISWWAPVDRYQYYRITYGETGGNSPVQEFTVPRDVYTATISGLKPGVDYTITVYAVTDYKPHADGPHTYHESPISINYRTEHHHHHH
[reply] 0.2
